Measured values drawn from PubChem BioAssay AID2060626 for this set.

test system: 168753-222-R-J1-PDC complex spheroid viability; assay: Anticancer human tumor 168753-222-R-J1-PDC patient-derived bladder carcinoma cell line growth inhibition [CLK]; conditions: second compound 3.16 µM; first compound 10 µM; stronger effect = lower value
Reported values of viability, T/C for individual entries
Quick reminder: number only, in %, skip the unit.

# compound, observed
rows = [
    ("O=c1[nH]cc(F)c(=O)[nH]1 + CNC(=O)c1ccc(Nc2nc(OC3CCCC3)c3c(-c4ccc5nc(C)oc5c4)c[nH]c3n2)c(OC)c1", 24.6),
    ("CC(=O)O[C@H]1C(=O)[C@@]2(C)[C@H]([C@H](OC(=O)c3ccccc3)[C@]3(O)C[C@H](OC(=O)[C@H](O)[C@@H](NC(=O)c4ccccc4)c4ccccc4)C(C)=C1C3(C)C)[C@]1(OC(C)=O)CO[C@@H]1C[C@@H]2O + CNC(=O)c1ccc(Nc2nc(OC3CCCC3)c3c(-c4ccc5nc(C)oc5c4)c[nH]c3n2)c(OC)c1", 36.4),
    ("O=C(c1cc(Cc2n[nH]c(=O)c3ccccc23)ccc1F)N1CCN(C(=O)C2CC2)CC1 + CNC(=O)c1ccc(Nc2nc(OC3CCCC3)c3c(-c4ccc5nc(C)oc5c4)c[nH]c3n2)c(OC)c1", 25.5),
]

Exercise: Entry CC1(C)CCC(CN2CCN(c3ccc(C(=O)NS(=O)(=O)c4ccc(NCC5CCOCC5)c([N+](=O)[O-])c4)c(Oc4cnc5[nH]ccc5c4)c3)CC2)=C(c2ccc(Cl)cc2)C1 + CNC(=O)c1ccc(Nc2nc(OC3CCCC3)c3c(-c4ccc5nc(C)oc5c4)c[nH]c3n2)c(OC)c1 : reported viability, T/C = ?
Solution: 23.9

====

tested on: 168753-222-R-J1-PDC complex spheroid viability; assay: Anticancer human tumor 168753-222-R-J1-PDC cell line growth inhibition [CLK]; details: second compound 3.16 µM; first compound 3.16 µM; stronger effect = lower value;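 note: luminescence signal used as surrogate for viable cell amount; viability measured after seven days of drug exposure; 100% = DMSO vehicle control wells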
quantity: viability, T/C (%)
Write the answer as a number in %, unit excluded.

// worked examples, viability, T/C included
# compound, quantity, quantity.unit, observed
data = [
    ("Nc1ccn(C2OC(CO)C(O)C2(F)F)c(=O)n1 (stereo not given) + CNC(=O)c1ccc(Nc2nc(OC3CCCC3)c3c(-c4ccc5nc(C)oc5c4)c[nH]c3n2)c(OC)c1", "viability, T/C", "%", 16.4),
    ("CC(Nc1ccc2c(c1)OCCn1cc(N3C(=O)OCC3C(F)F)nc1-2)C(N)=O (stereo not given) + CN1CCN(c2cc(C(=O)Nc3cc4cc(-c5cnn(C)c5)ccc4cn3)ccn2)CC1", "viability, T/C", "%", 2.39),
    ("CC(CO)NC(=O)c1cc(-c2ccc(Cl)cc2)nn(-c2cnn(C)c2)c1=O (stereo not given) + CNC(=O)c1ccc(Nc2nc(OC3CCCC3)c3c(-c4ccc5nc(C)oc5c4)c[nH]c3n2)c(OC)c1", "viability, T/C", "%", 39.4),
    ("C=C(F)C(=O)N1CCN(c2nc(OCC3CCCN3C)nc3c2CCN(c2cccc4cccc(Cl)c24)C3)CC1CC#N (stereo not given) + CNC(=O)c1ccc(Nc2nc(OC3CCCC3)c3c(-c4ccc5nc(C)oc5c4)c[nH]c3n2)c(OC)c1", "viability, T/C", "%", 18.4),
]

Moving on to another compound below.
Exercise: So what viability, T/C did COC1C=CCC(C)C(C)S(=O)(=O)NC(=O)c2ccc3c(c2)N(CC2CCC21)CC1(CCCc2cc(Cl)ccc21)CO3 (stereo not given) + CNC(=O)c1ccc(Nc2nc(OC3CCCC3)c3c(-c4ccc5nc(C)oc5c4)c[nH]c3n2)c(OC)c1 get with 168753-222-R-J1-PDC complex spheroid viability?
Solution: 15.3

====

Tested on: 168753-222-R-J1-PDC complex spheroid viability
Assay: Anticancer human tumor 168753-222-R-J1-PDC cell line growth inhibition [CLK];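 note: luminescence signal used as surrogate for viable cell amount; viability measured after seven days of drug exposure; 100% = DMSO vehicle control wells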
Conditions: second compound 0.0316 µM; first compound 0.003 µM; stronger effect = lower value
Description: A high-throughput screen of multi-cell type tumor spheroids was designed to identify active combinations of […] and targeted small molecules. Complex spheroids include a stromal component modeled by human endothelial cells (HUVEC) and fibroblasts modeled by human mesenchymal stem cells (MSCs). […] Compounds. […] If the clinical Cmax for an agent had not been determined, the highest concentration tested was 10 microM. […]
quantity: viability, T/C (%)
The figure you give is taken to be in %; do not add the unit.

# compound, tgt, viability, T/C (%)
rows = [
    ("C=CC(=O)Nc1cc(Nc2nccc(-c3cn(C)c4ccccc34)n2)c(OC)cc1N(C)CCN(C)C + CNC(=O)c1ccc(Nc2nc(OC3CCCC3)c3c(-c4ccc5nc(C)oc5c4)c[nH]c3n2)c(OC)c1", "168753-222-R-J1-PDC complex spheroid viability", 96.3),
    ("C=CC(=O)Nc1cc(Nc2nccc(-c3cn(C)c4ccccc34)n2)c(OC)cc1N(C)CCN(C)C + CN1CCN(c2cc(C(=O)Nc3cc4cc(-c5cnn(C)c5)ccc4cn3)ccn2)CC1", "168753-222-R-J1-PDC complex spheroid viability", 113),
    ("CC(C)CC(NC(=O)C(Cc1ccccc1)NC(=O)c1cnccn1)B(O)O (centres undefined) + CNC(=O)c1ccc(Nc2nc(OC3CCCC3)c3c(-c4ccc5nc(C)oc5c4)c[nH]c3n2)c(OC)c1", "168753-222-R-J1-PDC complex spheroid viability", 27.7),
]

Kindly review the next compound as well.
Exercise: Missing value: viability, T/C, 168753-222-R-J1-PDC complex spheroid viability, entry CC(C)CC(NC(=O)C(Cc1ccccc1)NC(=O)c1cnccn1)B(O)O (centres undefined) + CN1CCN(c2cc(C(=O)Nc3cc4cc(-c5cnn(C)c5)ccc4cn3)ccn2)CC1 . Fill in?
Solution: 18.9

====

tested on: 168753-222-R-J1-PDC complex spheroid viability; experiment: Anticancer human tumor 168753-222-R-J1-PDC cell line growth inhibition [CLK]; conditions: second compound 3.16 µM; first compound 0.00949 µM; active means viability on the fitted dose curve at most 10% of control; inactive means the rest;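 note: luminescence signal used as surrogate for viable cell amount; viability measured after seven days of drug exposure; 100% = DMSO vehicle control wells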
Return exactly one item of active, inactive

Illustrative cases are given below, each with its answer.
# compound, qualitative.label
measured = [
    ("NC(=O)C(=Cn1cnc(-c2cc(C(F)(F)F)cc(C(F)(F)F)c2)n1)c1cncnc1 + CNC(=O)c1ccc(Nc2nc(OC3CCCC3)c3c(-c4ccc5nc(C)oc5c4)c[nH]c3n2)c(OC)c1", "inactive"),
    ("C=CC(=O)Nc1cc(Nc2nccc(-c3cn(C)c4ccccc34)n2)c(OC)cc1N(C)CCN(C)C + CNC(=O)c1ccc(Nc2nc(OC3CCCC3)c3c(-c4ccc5nc(C)oc5c4)c[nH]c3n2)c(OC)c1", "inactive"),
    ("C=CC(=O)Nc1cc(Nc2nccc(-c3cn(C)c4ccccc34)n2)c(OC)cc1N(C)CCN(C)C + CN1CCN(c2cc(C(=O)Nc3cc4cc(-c5cnn(C)c5)ccc4cn3)ccn2)CC1", "active"),
    ("CC(C)CC(NC(=O)C(Cc1ccccc1)NC(=O)c1cnccn1)B(O)O (stereo unspecified) + CN1CCN(c2cc(C(=O)Nc3cc4cc(-c5cnn(C)c5)ccc4cn3)ccn2)CC1", "active"),
    ("NC(=O)C(=Cn1cnc(-c2cc(C(F)(F)F)cc(C(F)(F)F)c2)n1)c1cncnc1 + CN1CCN(c2cc(C(=O)Nc3cc4cc(-c5cnn(C)c5)ccc4cn3)ccn2)CC1", "active"),
]

Exercise: Entry CC(C)CC(NC(=O)C(Cc1ccccc1)NC(=O)c1cnccn1)B(O)O (stereo unspecified) + CNC(=O)c1ccc(Nc2nc(OC3CCCC3)c3c(-c4ccc5nc(C)oc5c4)c[nH]c3n2)c(OC)c1 : call = ?
Solution: active

====

system: 168753-222-R-J1-PDC complex spheroid viability; experiment: Anticancer human tumor 168753-222-R-J1-PDC cell line growth inhibition [CLK]; settings: second compound 0.1 µM; first compound 0.0316 µM; stronger effect = lower value;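 note: luminescence signal used as surrogate for viable cell amount; viability measured after seven days of drug exposure; 100% = DMSO vehicle control wells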
quantity: viability, T/C (%)
Report the value in % with no unit label.

Guide cases for viability, T/C, answers given:
# molecule, quantity.unit, observed
data = [
    ("CC1(C)CCC(CN2CCN(c3ccc(C(=O)NS(=O)(=O)c4ccc(NCC5CCOCC5)c([N+](=O)[O-])c4)c(Oc4cnc5[nH]ccc5c4)c3)CC2)=C(c2ccc(Cl)cc2)C1 + CN1CCN(c2cc(C(=O)Nc3cc4cc(-c5cnn(C)c5)ccc4cn3)ccn2)CC1", "%", 69.7),
    ("COc1c(OCCCN2CCOCC2)ccc2c3n(c(=NC(=O)c4cnc(N)nc4)nc12)CCN3 + CN1CCN(c2cc(C(=O)Nc3cc4cc(-c5cnn(C)c5)ccc4cn3)ccn2)CC1", "%", 7.93),
    ("CC(=O)O[C@H]1C(=O)[C@@]2(C)[C@H]([C@H](OC(=O)c3ccccc3)[C@]3(O)C[C@H](OC(=O)[C@H](O)[C@@H](NC(=O)c4ccccc4)c4ccccc4)C(C)=C1C3(C)C)[C@]1(OC(C)=O)CO[C@@H]1C[C@@H]2O + CN1CCN(c2cc(C(=O)Nc3cc4cc(-c5cnn(C)c5)ccc4cn3)ccn2)CC1", "%", 12.3),
]

Exercise: GET /values?readout=viability, T/C&item= CC(Nc1ccc2c(c1)OCCn1cc(N3C(=O)OCC3C(F)F)nc1-2)C(N)=O (centres undefined) + CNC(=O)c1ccc(Nc2nc(OC3CCCC3)c3c(-c4ccc5nc(C)oc5c4)c[nH]c3n2)c(OC)c1
Solution: 83.7
